- Target: T1, recombinant human PD-1 Fc chimera (human, UniProt Q15116 25-167)
- T1 construct: Bought (R&D 1086-PD); Labelled with europium cryptate in the PD-L2 HTRF assay; also called human PD-1 (R&D Systems cat no. 1086-PD); human PD-1-huFc; not shown: human Fc of the bought chimera
- T1 sequence (Q15116 25-167, change not shown): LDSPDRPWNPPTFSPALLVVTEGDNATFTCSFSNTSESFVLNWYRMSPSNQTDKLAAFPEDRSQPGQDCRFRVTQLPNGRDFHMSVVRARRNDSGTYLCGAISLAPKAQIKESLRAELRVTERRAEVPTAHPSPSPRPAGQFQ
- Assay explanation: SPR (Biacore T200), PD-1-huFc amine-coupled to CM5, single cycle kinetics, 1:1 fit
Label scheme for koff: lower than 0.002 s⁻¹ is 0, 0.002 s⁻¹ and above is 1.

Binder	Assigned label
Humabody VH 1.40 (VHH, human VH single domain antibody) VHH: EVQLVESGGGLVQPGRSLRLSCAASGFTFDDYALHWVRQAPGKDLEWVSGISWNGGSQGYADSVKGRFTISRDNAKNSLYLQMNSLRAEDTALYYCVREKGPGLTGSTADYYGLDAWGQGTMVTVSS	0
Humabody VH 1.50 (VHH, human VH single domain antibody) VHH: EVQLVESGGGLVQPGRSLRLSCAASGFTFDDYAFHWVRQAPGKDLEWVSGISWNAGSQGYADSVKGRFTISRDNAKNSLYLQMNSLRAEDTALYYCVREKGPGLTGSTADYYGLDAWGQGTMVTVSS	1
Humabody VH 1.48 (VHH, human VH single domain antibody) VHH: EVQLVESGGGLVQPGRSLRLSCAASGFTFDDYALHWVRQAPGKDLEWVSGISWNSGSQGYADSVKGRFTISRDNAKNSLYLQMNSLRAEDTALYYCVREKGPGLTGSTADYYGLDAWGQGTMVTVSS	1
Humabody VH 1.39 (VHH, human VH single domain antibody) VHH: EVQLVESGGGLVQPGRSLRLSCAASGFTFDDYALHWVRQAPGKDLEWVSGISWNGGSYGYADSVKGRFTISRDNAKNSLYLQMNSLRAEDTALYYCVREKGPGLTGSTADYYGLDAWGQGTMVTVSS	0
Humabody VH 1.26 (VHH, human VH single domain antibody) VHH: EVQLVESGGGLVQPGRSLRLSCAASGFTFDDYAMHWVRQAPGKDLEWVSGISWNGGSMGYADSVKGRFTISRDNAKNSLYLQMNSLRAEDTALYYCVREKGPGLTGSTADYYGLDAWGQGTMVTVSS	1
Humabody VH 2.12 (VHH, human VH single domain antibody) VHH: EVQLVESGGGVVRPGGSLRLSCAASGFTFDDYAMSWVRQAPGKGLEWVSGITWNAGSTGYADSVKGRFTISRDNAKNSLYLQMNSLRAEDTALYYCVRDKYSYAWSYDDFDIWGQGTMVTVSS	1
Humabody VH 1.47 (VHH, human VH single domain antibody) VHH: EVQLVESGGGLVQPGRSLRLSCAASGFTFDDYAFHWVRQAPGKDLEWVSGISWNSGSYGYADSVKGRFTISRDNAKNSLYLQMNSLRAEDTALYYCVREKGPGLTGSTADYYGLDAWGQGTMVTVSS	1
